# tested-system: human CD33 L277A (human, UniProt P20138 18-364)
# Sequence (P20138 18-364 L277A limits assumed): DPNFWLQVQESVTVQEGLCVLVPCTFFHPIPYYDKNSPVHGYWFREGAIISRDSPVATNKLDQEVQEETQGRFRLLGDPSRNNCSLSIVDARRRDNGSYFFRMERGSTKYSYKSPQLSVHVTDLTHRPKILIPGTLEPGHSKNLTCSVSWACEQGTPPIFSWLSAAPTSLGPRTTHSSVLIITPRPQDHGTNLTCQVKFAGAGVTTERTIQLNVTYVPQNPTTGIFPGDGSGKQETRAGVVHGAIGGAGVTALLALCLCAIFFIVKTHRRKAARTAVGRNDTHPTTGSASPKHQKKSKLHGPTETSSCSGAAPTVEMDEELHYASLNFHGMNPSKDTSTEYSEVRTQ
# procedure-summary: alanine scan, flow cytometry, HEK293-T;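 note: antibody binding to each alanine-substituted CD33 mutant expressed transiently in HEK293-T, read as fluorescence minus background, mean of duplicates, relative to wild-type CD33 set as 100%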
metric: Mean % WT Binding (% WT binding)
Express your answer in % WT binding, writing the number without its unit.

[
  {
    "binder": "Refmab #4 (antibody, V domains shown, The alanine scan used IgG or Fab) VH: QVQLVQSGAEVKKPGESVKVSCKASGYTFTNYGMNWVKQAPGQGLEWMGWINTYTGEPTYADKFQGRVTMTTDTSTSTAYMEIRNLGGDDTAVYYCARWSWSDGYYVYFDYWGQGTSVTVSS VL: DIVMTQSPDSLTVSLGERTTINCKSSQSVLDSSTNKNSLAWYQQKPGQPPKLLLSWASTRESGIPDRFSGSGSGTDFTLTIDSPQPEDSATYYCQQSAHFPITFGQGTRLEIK",
    "metric": "Mean % WT Binding",
    "numeric-readout": 92.2
  },
  {
    "binder": "Refmab #1 (antibody, V domains shown, The alanine scan used IgG or Fab; also called hP67.6) VH: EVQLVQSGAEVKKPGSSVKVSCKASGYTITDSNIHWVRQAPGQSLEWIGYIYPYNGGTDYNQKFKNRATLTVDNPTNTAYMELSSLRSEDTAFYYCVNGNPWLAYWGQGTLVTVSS VL: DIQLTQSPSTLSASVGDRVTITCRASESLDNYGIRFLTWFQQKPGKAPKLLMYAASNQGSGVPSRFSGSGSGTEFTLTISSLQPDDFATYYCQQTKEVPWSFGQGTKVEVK",
    "metric": "Mean % WT Binding",
    "numeric-readout": 85.5
  },
  {
    "binder": "Refmab #2 (antibody, V domains shown, The alanine scan used IgG or Fab) VH: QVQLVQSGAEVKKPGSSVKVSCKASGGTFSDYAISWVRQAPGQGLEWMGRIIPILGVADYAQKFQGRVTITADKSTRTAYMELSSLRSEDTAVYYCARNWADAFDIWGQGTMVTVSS VL: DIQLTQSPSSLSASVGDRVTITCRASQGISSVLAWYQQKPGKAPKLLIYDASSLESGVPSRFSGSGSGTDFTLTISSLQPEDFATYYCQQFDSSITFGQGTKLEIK",
    "metric": "Mean % WT Binding",
    "numeric-readout": 117
  }
]

The measured Mean % WT Binding associated with Refmab #3 (antibody, V domains shown, The alanine scan used IgG or Fab) VH: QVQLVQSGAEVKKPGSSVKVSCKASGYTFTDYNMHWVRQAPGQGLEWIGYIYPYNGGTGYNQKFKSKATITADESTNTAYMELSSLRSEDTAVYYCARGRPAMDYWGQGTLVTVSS VL: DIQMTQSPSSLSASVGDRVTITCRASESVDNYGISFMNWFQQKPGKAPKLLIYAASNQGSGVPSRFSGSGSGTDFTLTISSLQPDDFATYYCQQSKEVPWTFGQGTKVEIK reads 81.9

Values compiled from patent US20260242735A1.
